Target: DNMT1 (Homo sapiens)
Assay: In vitro DNMT inhibition, radiometric filter-paper assay, DNMT1
Type: biochemical
pIC50: −log10 of the molar value.
Property label: pIC50

Item Oc1ccc(/C=C/c2cc(O)cc(O)c2)cc1 [Resveratrol, 3,4′,5-trans-trihydroxystilbene] has what recorded pIC50? < 3.52

---

Target: DNMT3B/3L (Homo sapiens, UniProt Q9UBC3)
Assay: In vitro DNMT inhibition, radiometric filter-paper assay, DNMT3B/3L
Property label: pIC50
Please treat pIC50 as minus the base-10 logarithm of the molar concentration.

# input molecule: Oc1ccc(/C=C/c2cc(O)cc(O)c2)cc1 [Resveratrol, 3,4′,5-trans-trihydroxystilbene] ; wanted: its pIC50 4.19

---

Molecular target: DNMT1 (Homo sapiens, UniProt P26358)
Sequence (P26358 whole entry): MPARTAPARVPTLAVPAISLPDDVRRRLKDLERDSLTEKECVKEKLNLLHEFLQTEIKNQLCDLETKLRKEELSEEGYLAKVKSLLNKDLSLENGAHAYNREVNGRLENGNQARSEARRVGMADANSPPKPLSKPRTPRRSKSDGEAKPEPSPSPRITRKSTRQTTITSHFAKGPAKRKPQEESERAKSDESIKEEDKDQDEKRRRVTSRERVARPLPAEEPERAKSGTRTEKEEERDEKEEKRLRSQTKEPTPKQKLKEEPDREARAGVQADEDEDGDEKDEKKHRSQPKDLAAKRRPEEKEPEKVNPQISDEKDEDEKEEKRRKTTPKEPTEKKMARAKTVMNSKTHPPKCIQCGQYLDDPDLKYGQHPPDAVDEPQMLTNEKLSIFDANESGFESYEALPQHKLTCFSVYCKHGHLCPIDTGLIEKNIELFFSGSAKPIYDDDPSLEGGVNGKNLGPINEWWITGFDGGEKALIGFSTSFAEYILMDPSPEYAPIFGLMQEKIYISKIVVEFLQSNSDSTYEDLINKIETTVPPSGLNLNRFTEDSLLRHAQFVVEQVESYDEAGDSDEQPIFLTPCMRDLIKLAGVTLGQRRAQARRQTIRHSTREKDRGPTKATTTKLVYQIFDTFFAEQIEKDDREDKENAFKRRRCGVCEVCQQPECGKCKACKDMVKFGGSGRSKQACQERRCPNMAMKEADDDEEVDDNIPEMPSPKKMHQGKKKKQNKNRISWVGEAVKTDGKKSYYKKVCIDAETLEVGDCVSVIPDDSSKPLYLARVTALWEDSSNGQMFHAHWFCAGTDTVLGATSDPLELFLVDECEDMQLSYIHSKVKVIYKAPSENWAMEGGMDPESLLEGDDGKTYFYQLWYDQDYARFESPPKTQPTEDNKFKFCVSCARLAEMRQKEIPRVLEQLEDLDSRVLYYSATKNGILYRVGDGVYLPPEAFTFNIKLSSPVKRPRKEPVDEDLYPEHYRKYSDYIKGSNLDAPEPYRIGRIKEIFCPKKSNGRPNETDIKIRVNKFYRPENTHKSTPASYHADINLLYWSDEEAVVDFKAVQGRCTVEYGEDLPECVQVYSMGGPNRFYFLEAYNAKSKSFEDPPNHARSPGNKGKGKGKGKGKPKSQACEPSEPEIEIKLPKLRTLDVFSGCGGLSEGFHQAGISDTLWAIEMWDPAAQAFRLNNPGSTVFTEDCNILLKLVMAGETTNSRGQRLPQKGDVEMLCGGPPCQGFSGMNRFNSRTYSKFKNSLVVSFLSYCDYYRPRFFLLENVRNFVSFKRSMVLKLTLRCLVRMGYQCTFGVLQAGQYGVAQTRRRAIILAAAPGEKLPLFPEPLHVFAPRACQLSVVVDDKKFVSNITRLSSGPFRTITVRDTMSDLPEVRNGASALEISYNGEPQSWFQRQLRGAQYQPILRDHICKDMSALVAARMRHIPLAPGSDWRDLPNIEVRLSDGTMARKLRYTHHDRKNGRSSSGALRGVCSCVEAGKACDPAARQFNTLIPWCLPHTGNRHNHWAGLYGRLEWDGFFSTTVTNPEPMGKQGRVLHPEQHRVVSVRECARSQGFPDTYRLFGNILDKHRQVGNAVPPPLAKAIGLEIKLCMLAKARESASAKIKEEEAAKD
Assay: In vitro DNMT inhibition, radiometric filter-paper assay, DNMT1
Type: biochemical
Details: read-out: IC50 (μM) DNMT1; cell-free biochemical assay; NI = no inhibition at the maximum test compound concentration (300 μM)
Property label: IC50

Name the recorded IC50 for COc1ccc(/C=C/c2cc(OC)cc(OC)c2)cc1 [TMS, 3,4′,5-trans-trimethoxystilbene] . > 300 µM
